// provenance: patent US6087363A

- Test system: rat cerebral bNOS
- METHOD NOTES: inhibition of bNOS activity (nitrite production, Griess reaction)
- Format: biochemical
- TEST SETTINGS: 50 μM; 15 min; average of 4 wells
ENDPOINT LABEL: bNOS Inhibition, % Inhib (%)
Give the value in % but do not write % after it.

The following compounds have reported results that may help.
O=C1NC(c2c[nH]c3cc(Br)ccc23)CN=C1c1c[nH]c2cc(Br)ccc12 (stereo not drawn) [Hamacanthin-A, hamacanthin-A]	99.58
CC(c1cnc(N)[nH]1)c1ccc(O)c2[nH]cc(-c3cnc(-c4c[nH]c5cc(Br)ccc45)c(=O)[nH]3)c12 (stereo not drawn) [Dragmacidin-D, dragmacidin-D]	99.56

Please turn your attention to the following entry.
For record O=C(c1nc(-c2c[nH]c3ccccc23)c[nH]1)c1c[nH]c2cc(O)ccc12 [Topsentin, topsentin] the listed bNOS Inhibition, % Inhib is 22.66
